molecular target: IKZF2 (Helios) (Homo sapiens, UniProt Q96SW2+Q9UKS7); construct: CRISPR/Cas-mediated insertion of the HiBiT peptide tag (Promega™) to the N-terminus of the IKZF2 gene locus; endogenous in cells; host or cells: MOLT4 cells, CRISPR/Cas knock-in of HiBiT at the endogenous IKZF2 locus; experiment: MOLT4 IKZF2 HiBit assay protocol (Example 64); type: cell-based; settings: MOLT4 IKZF2 HiBit cells, 10-point 30 μM to 1 nM; table title: after 6 hours of treatment (method: incubated 24 hours)
Sequence (Q9UKS7 whole entry): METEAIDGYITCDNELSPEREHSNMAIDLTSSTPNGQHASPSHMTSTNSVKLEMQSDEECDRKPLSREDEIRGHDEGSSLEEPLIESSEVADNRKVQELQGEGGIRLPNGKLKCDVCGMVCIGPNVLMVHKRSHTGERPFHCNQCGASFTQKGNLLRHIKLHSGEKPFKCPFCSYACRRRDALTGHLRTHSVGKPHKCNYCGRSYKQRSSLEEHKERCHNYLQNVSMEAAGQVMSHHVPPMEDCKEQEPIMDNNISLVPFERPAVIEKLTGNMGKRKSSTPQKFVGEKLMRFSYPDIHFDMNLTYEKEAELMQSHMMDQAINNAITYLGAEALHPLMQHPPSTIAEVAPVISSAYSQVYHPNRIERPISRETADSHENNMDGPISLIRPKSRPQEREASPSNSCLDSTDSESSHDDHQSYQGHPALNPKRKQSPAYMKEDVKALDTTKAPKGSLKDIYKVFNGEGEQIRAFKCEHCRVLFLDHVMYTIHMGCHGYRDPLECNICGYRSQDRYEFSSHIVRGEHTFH
Sequence (Q96SW2 whole entry): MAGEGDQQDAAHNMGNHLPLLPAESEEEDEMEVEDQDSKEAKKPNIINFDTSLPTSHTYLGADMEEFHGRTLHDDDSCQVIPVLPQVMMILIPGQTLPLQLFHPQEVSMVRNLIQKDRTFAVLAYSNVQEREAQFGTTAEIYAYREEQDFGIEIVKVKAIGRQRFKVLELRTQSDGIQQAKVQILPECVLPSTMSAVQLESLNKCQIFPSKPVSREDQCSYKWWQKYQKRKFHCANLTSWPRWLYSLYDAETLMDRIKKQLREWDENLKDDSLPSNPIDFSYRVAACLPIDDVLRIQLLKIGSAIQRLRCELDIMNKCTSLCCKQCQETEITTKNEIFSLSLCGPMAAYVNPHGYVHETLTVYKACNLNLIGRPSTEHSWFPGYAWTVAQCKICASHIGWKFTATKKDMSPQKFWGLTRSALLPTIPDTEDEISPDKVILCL
Sequence (Q16531 whole entry partner): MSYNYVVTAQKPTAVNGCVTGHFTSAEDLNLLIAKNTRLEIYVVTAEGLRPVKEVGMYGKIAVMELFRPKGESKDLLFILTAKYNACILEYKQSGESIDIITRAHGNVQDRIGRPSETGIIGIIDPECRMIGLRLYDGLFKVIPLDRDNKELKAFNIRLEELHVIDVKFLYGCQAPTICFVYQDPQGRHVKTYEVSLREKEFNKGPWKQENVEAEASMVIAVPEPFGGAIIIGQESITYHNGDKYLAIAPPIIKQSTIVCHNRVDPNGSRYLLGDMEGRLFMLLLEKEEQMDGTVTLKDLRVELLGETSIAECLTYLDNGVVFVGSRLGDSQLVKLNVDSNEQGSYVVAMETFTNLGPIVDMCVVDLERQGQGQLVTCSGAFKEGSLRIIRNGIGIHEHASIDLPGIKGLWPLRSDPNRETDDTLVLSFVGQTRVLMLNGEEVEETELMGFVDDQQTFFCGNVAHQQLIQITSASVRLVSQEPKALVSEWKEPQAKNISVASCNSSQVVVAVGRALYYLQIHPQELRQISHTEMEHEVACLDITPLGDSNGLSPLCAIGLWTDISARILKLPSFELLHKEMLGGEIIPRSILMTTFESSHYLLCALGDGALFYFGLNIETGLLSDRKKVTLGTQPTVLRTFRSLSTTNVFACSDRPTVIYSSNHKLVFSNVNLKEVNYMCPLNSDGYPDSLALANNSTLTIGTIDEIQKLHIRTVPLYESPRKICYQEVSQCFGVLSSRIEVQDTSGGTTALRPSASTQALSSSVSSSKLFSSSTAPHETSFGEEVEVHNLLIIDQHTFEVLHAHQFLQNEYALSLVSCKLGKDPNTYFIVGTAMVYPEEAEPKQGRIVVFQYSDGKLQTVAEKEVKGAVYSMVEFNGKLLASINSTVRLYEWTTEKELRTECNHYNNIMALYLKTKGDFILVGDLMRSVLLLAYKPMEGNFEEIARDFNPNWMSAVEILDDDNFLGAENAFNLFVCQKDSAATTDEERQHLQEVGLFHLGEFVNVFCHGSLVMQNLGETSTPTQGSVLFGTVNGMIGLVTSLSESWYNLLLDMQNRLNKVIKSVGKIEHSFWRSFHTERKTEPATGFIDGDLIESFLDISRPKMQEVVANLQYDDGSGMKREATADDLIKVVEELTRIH
experimentalReadout: DC50

// worked examples, DC50 included
O=C1CCC(N2Cc3cc(C4CCN(Cc5ccc6ncn(-c7cccc(C(F)(F)F)n7)c(=O)c6c5)CC4)ccc3C2=O)C(=O)N1 (centres unmarked) [Compound 64] | 5 to 25 nM
O=C1CCC(N2Cc3cc(C4CCN(Cc5ccc6ncn(-c7cccc(F)c7)c(=O)c6c5)CC4)ccc3C2=O)C(=O)N1 (centres unmarked) [Compound 28] | 5 to 25 nM
O=C1CCC(N2Cc3c(ccc(C4CCN(Cc5ccc6ncn(-c7ccccn7)c(=O)c6c5)CC4)c3F)C2=O)C(=O)N1 (centres unmarked) [Compound 85] | 25 to 100 nM
O=C1CCC(N2Cc3cc(C4CCN(Cc5cn6cc(-c7cccnc7)ccc6n5)CC4)ccc3C2=O)C(=O)N1 (centres unmarked) [Compound 97] | 25 to 100 nM
O=C1CCC(N2Cc3cc(C4CCN(Cc5ccc6cc(-c7ccccn7)nn6c5)CC4)ccc3C2=O)C(=O)N1 (centres unmarked) [Compound 92] | 5 to 25 nM
O=C1CCC(N2Cc3c(ccc(C4CCN(Cc5ccc6ncn(-c7cccnc7)c(=O)c6c5)CC4)c3F)C2=O)C(=O)N1 (centres unmarked) [Compound 89] | 5 to 25 nM
O=C1CCC(N2Cc3cc(C4CCN(Cc5ccc6nc(-c7ccccc7)cn6c5)CC4)ccc3C2=O)C(=O)N1 (centres unmarked) [Compound 54] | < 5 nM
O=C1CCC(N2Cc3cc(C4CCN(Cc5cn6ccc(-c7ccccc7)cc6n5)CC4)ccc3C2=O)C(=O)N1 (centres unmarked) [Compound 98] | 25 to 100 nM

Qu. Any idea what DC50 was measured for Cc1nc2ccc(CN3CCC(c4ccc5c(c4)CN(C4CCC(=O)NC4=O)C5=O)CC3)cc2c(=O)n1-c1ccccc1 (centres unmarked) [Compound 83] ?
Ans. < 5 nM

Qu. Moving on to the next compound: O=C1CCC(N2Cc3cc(C4CCN(Cc5cn6cc(-c7ccccc7)ccc6n5)CC4)ccc3C2=O)C(=O)N1 (centres unmarked) [Compound 96]
Ans. 25 to 100 nM

Qu. Another compound: CC(C)c1cccc(-n2cnc3ccc(CN4CCC(c5ccc6c(c5)CN(C5CCC(=O)NC5=O)C6=O)CC4)cc3c2=O)n1 (centres unmarked) [Compound 63]
Ans. 5 to 25 nM

---

biological target: IKZF2 (Helios) (Homo sapiens, UniProt Q96SW2+Q9UKS7); construct: CRISPR/Cas-mediated insertion of the HiBiT peptide tag (Promega™) to the N-terminus of the IKZF2 gene locus; endogenous in cells; host or cells: MOLT4 cells, CRISPR/Cas knock-in of HiBiT at the endogenous IKZF2 locus; test: HiBiT protocol: HiBiT-Helios degradation in MOLT4 cells (Example 63); assay type: cell-based; settings: after 6 hours of treatment, 13-point 10 μM to 0.00026 μM
Examples of compounds with documented DC50 follow.

O=C1CCC(N2Cc3cc(C4CCN(Cc5ccc6c(c5)C(=O)N(c5cccc(F)c5)CCO6)CC4)ccc3C2=O)C(=O)N1 (stereo not shown) [Compound 5] | < 5 nM
O=C1CCC(N2Cc3cc(C4CCN(Cc5ccc6c(c5)C(=O)N(c5cccc(Cl)c5)CCO6)CC4)ccc3C2=O)C(=O)N1 (stereo not shown) [Compound 6] | < 5 nM
O=C1CCC(N2Cc3cc(C4CCN(Cc5ccc6c(c5)N(c5ccccc5)C(=O)CCC6)CC4)ccc3C2=O)C(=O)N1 (stereo not shown) [Compound 22] | 5 to 25 nM

Moving on to the next compound.
Qu. Quick one: DC50 of O=C1CCC(N2Cc3cc(C4CCN(Cc5ccc6c(c5)C(=O)N(c5ccsn5)CCO6)CC4)ccc3C2=O)C(=O)N1 (stereo not shown) [Compound 48] ?
Ans. 5 to 25 nM

---

target: IKZF2 (Helios) (Homo sapiens, UniProt Q96SW2+Q9UKS7); construct: CRISPR/Cas-mediated insertion of the HiBiT peptide tag (Promega™) to the N-terminus of the IKZF2 gene locus; endogenous in cells; host or cells: MOLT4 cells, CRISPR/Cas knock-in of HiBiT at the endogenous IKZF2 locus; experiment: MOLT4 IKZF2 HiBit assay protocol (Example 64); format: cell-based; details: MOLT4 IKZF2 HiBit cells, 10-point 30 μM to 1 nM; table title: after 6 hours of treatment (method: incubated 24 hours)
experimentalReadout: DC50

O=C1CCC(N2Cc3cc(C4CCN(Cc5cc6c(=O)n(-c7ccccn7)cnc6cc5F)CC4)ccc3C2=O)C(=O)N1 (stereo not drawn) [Compound 87] | < 5 nM
Cc1nc2ccc(CN3CCC(c4ccc5c(c4)CN(C4CCC(=O)NC4=O)C5=O)CC3)cc2c(=O)n1-c1ccccn1 (stereo not drawn) [Compound 84] | < 5 nM

Qu. Dear colleague, I am looking for the recorded DC50 of the following compound: Cc1cccc(-n2cnc3ccc(CN4CCC(c5ccc6c(c5)CN(C5CCC(=O)NC5=O)C6=O)CC4)cc3c2=O)n1 (stereo not drawn) [Compound 62]
Ans. 5 to 25 nM

Qu. One more compound: O=C1CCC(N2Cc3cc(C4CCN(Cc5ccc6ncn(-c7cncc(F)c7)c(=O)c6c5)CC4)ccc3C2=O)C(=O)N1 (stereo not drawn) [Compound 75]
Ans. 25 to 100 nM

Qu. Also Cc1ncccc1-n1cnc2ccc(CN3CCC(c4ccc5c(c4)CN(C4CCC(=O)NC4=O)C5=O)CC3)cc2c1=O (stereo not drawn) [Compound 68] ?
Ans. < 5 nM

Qu. And for O=C1CCC(N2Cc3cc(C4CCN(Cc5ccc6nc(-c7ccccc7)nn6c5)CC4)ccc3C2=O)C(=O)N1 (stereo not drawn) [Compound 55] ?
Ans. 25 to 100 nM

---

Catalogue of DC50 readings, one per entry.
target: IKZF2 (Helios) (Homo sapiens, UniProt Q96SW2+Q9UKS7); construct: CRISPR/Cas-mediated insertion of the HiBiT peptide tag (Promega™) to the N-terminus of the IKZF2 gene locus; endogenous in cells; host or cells: MOLT4 cells, CRISPR/Cas knock-in of HiBiT at the endogenous IKZF2 locus; assay: MOLT4 IKZF2 HiBit assay protocol (Example 64); type: cell-based; conditions: MOLT4 IKZF2 HiBit cells, 10-point 30 μM to 1 nM; table title: after 6 hours of treatment (method: incubated 24 hours)

N#Cc1cccc(-n2cnc3ccc(CN4CCC(c5ccc6c(c5)CN(C5CCC(=O)NC5=O)C6=O)CC4)cc3c2=O)c1 (stereo not drawn) | 5 to 25 nM
O=C1CCC(N2Cc3cc(C4CCN(Cc5ccc6ncn(-c7cccc(C(F)(F)F)c7)c(=O)c6c5)CC4)ccc3C2=O)C(=O)N1 (stereo not drawn) | 5 to 25 nM
O=C1CCC(N2Cc3cc(C4CCN(Cc5cn6ccc(-c7cccnc7)cc6n5)CC4)ccc3C2=O)C(=O)N1 (stereo not drawn) | 25 to 100 nM
COc1cccc(-n2cnc3ccc(CN4CCC(c5ccc6c(c5)CN(C5CCC(=O)NC5=O)C6=O)CC4)cc3c2=O)n1 (stereo not drawn) | 5 to 25 nM
O=C1CCC(N2Cc3cc(C4CCN(Cc5ccc6ncn(-c7cccnc7)c(=O)c6c5)CC4)ccc3C2=O)C(=O)N1 (stereo not drawn) | 5 to 25 nM

Now, please, on to the next molecule.
Qu. Query (molecule): Cn1cc(-n2cnc3ccc(CN4CCC(c5ccc6c(c5)CN(C5CCC(=O)NC5=O)C6=O)CC4)cc3c2=O)cn1 (stereo not drawn) ; field requested: DC50
Ans. 5 to 25 nM
